Test system: Acinetobacter baumannii
Test: Antibacterial activity against Acinetobacter baumannii ATCC19606 assessed as effect on bacterial growth at 64 ug/ml
Type: functional, organism-based
Conditions: dose 64.0 µg/ml
Activity calls are given as the source filed them. The rule behind the calls is not given here.
OBSERVATION TYPE: Activity

[[record]]
sample_smiles = "CC(C)CC[C@@H](C)C(=O)NCCCCNC(=N)N.O=C(O)C(F)(F)F"
value = "inactive"

[[record]]
sample_smiles = "CC(C)CC[C@@H](C)C(=O)N(C)CCCCNC(=N)N.O=C(O)C(F)(F)F"
value = "inactive"

[[record]]
sample_smiles = "CC(C)CC[C@@H](C)C(=O)NCCCNC(=N)N.O=C(O)C(F)(F)F"
value = "inactive"

[[record]]
sample_smiles = "C/C(=C/CCC(C)C)C(=O)NCCCCNC(=N)N.O=C(O)C(F)(F)F"
value = "inactive"


The values you see were collected from ChEMBL document CHEMBL5385932.
